# credit: patent US20210122763A1

molecular target: OGA (Homo sapiens); construct: HEK293 cells inducible for P301L mutant human Tau (isoform 2N4R) were established at Janssen; endogenous in cells; host or cells: HEK293 cells inducible for P301L mutant human Tau (2N4R); assay: OGA cellular assay (ICC detection of O-GlcNAcylated proteins in HEK293 cells inducible for P301L mutant human Tau); assay type: cell-based; settings: HEK293 cells inducible for P301L mutant human Tau, 6 hours incubation; read-out: Cellular hOGA; pEC50 (converted)
valueKind: EC50 (nM)

[[record]]
compound = "Cc1cc(C(F)(F)F)cc(OC2CCN(C(C)c3nc4c(cc3F)OCCO4)CC2)n1 (centres unmarked) [Compound 48]"
unitlabel = "nM"
assayvalue = 251


A = CC(c1nc2c(cc1F)OCCO2)N1CCC(Oc2ccc(C#N)cn2)CC1 (centres unmarked) [Compound 49]
B = Cc1cc(OC2CCN(C(C)c3ccc4c(n3)OCCO4)CC2)nc(C)n1 (single isomer, unassigned) [Compound 10]
C = COc1cc(OC2CCN([C@@H](C)c3nc4nc(C)sc4cc3F)CC2)cc(C)n1 (single isomer, unassigned) [Compound 81]
rank_up(items): orders items by reported EC50 in ascending numerical order. Rank them, then answer with their labels in that order. C, A, B
(C: 31.6 nM, A: 288 nM, B: 631 nM)

###

Biological target: OGA (Homo sapiens, UniProt O60502)
Construct: HEK293 cells inducible for P301L mutant human Tau (isoform 2N4R) were established at Janssen; endogenous in cells; host or cells: HEK293 cells inducible for P301L mutant human Tau (2N4R)
Sequence (O60502 1-916): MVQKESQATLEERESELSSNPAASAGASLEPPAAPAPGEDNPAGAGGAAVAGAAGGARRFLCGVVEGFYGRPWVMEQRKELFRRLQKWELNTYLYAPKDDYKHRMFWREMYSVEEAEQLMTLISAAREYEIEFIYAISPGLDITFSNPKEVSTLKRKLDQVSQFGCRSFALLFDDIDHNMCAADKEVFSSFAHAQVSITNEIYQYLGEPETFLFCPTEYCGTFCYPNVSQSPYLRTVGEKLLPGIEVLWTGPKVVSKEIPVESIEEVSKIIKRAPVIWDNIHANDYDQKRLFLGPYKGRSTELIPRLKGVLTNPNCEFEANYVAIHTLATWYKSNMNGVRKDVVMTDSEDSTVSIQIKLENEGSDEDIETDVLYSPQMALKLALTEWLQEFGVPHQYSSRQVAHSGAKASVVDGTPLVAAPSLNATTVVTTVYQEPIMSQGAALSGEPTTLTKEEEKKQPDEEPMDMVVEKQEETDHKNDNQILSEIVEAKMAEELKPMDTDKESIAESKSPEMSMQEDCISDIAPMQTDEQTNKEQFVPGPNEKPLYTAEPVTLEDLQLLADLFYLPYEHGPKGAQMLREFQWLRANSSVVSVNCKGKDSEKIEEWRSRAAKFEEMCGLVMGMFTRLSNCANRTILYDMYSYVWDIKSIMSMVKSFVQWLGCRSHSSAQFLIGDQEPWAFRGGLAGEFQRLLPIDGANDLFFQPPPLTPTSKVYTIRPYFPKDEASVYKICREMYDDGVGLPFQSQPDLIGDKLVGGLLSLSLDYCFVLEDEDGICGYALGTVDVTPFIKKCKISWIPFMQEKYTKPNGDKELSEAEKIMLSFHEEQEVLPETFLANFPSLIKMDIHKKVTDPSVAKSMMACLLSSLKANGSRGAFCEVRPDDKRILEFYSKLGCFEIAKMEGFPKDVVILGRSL
Assay: OGA cellular assay (ICC detection of O-GlcNAcylated proteins in HEK293 cells inducible for P301L mutant human Tau)
Type: cell-based
Conditions: HEK293 cells inducible for P301L mutant human Tau, 6 hours incubation; read-out: Cellular hOGA; pEC50 (converted)
valueKind: EC50 (nM)

[[record]]
compound = "Cc1ncc(NC2CCN(C(C)c3nc4c(cc3F)OCCO4)CC2)cn1 (centres unmarked)"
valuekind = "EC50"
assayvalue = 135


A = Cc1cc(OC2CCN(C(C)c3ccc4c(c3)OCCO4)CC2)cc(C)n1 (centres unmarked)
B = Cc1cc(OC2CCN(C(C)c3cnc4c(c3)OCCN4)CC2)cc(C)n1 (centres unmarked)
C = Cc1cc(OC2CCN(C(C)c3nc4nc(C)sc4cc3F)CC2)cc(C)n1 (centres unmarked)
D = CC(c1nc2c(cc1F)OCCO2)N1CCC(Oc2ccc(C(F)(F)F)cn2)CC1 (centres unmarked)
I would appreciate it if you could sort these 4 compounds by EC50, starting from the smallest number. The reply should contain the labels ordered as requested. C, B, D, A
(C: 79.4 nM, B: 158 nM, D: 251 nM, A: 631 nM)

###

biological target: OGA (Homo sapiens, UniProt O60502); construct: HEK293 cells inducible for P301L mutant human Tau (isoform 2N4R) were established at Janssen; endogenous in cells; host or cells: HEK293 cells inducible for P301L mutant human Tau (2N4R); assay: OGA cellular assay (ICC detection of O-GlcNAcylated proteins in HEK293 cells inducible for P301L mutant human Tau); format: cell-based; details: HEK293 cells inducible for P301L mutant human Tau, 6 hours incubation; read-out: Cellular hOGA; pEC50 (converted)
valueKind: EC50 (nM)

The cases that follow already have their EC50 on record.
[[record]]
compound = "Cc1ccc(OC2CCN(C(C)c3nc4c(cc3F)OCCO4)CC2)cn1 (centres unmarked)"
valuekind = "EC50"
unitlabel = "nM"
assayvalue = 95.5

[[record]]
compound = "Cc1cnc(OC2CCN(C(C)c3nc4c(cc3F)OCCO4)CC2)c(C)n1 (centres unmarked)"
valuekind = "EC50"
unitlabel = "nM"
assayvalue = 316


P = CCOc1cc(OC2CCN(C(C)c3ccc4c(n3)OCCO4)CC2)cc(C)n1.Cl (centres unmarked)
Q = C[C@@H](c1ccc2c(n1)OCCO2)N1CCC(Oc2ccc(C(N)=O)nn2)CC1 (single isomer, unassigned)
Would you mind telling me which has the lower recorded EC50 between P and Q ? Respond using the label that marks the chosen record. P
(P: 158 nM, Q: 631 nM)

###

Target: recombinant human Meningioma Expressed Antigen 5 (MGEA5), also referred to as O-GlcNAcase (OGA) (Homo sapiens)
Construct: Full length OGA enzyme was purchased at OriGene (cat #TP322411); purchased OriGene TP322411
Sequence (O60502 1-916): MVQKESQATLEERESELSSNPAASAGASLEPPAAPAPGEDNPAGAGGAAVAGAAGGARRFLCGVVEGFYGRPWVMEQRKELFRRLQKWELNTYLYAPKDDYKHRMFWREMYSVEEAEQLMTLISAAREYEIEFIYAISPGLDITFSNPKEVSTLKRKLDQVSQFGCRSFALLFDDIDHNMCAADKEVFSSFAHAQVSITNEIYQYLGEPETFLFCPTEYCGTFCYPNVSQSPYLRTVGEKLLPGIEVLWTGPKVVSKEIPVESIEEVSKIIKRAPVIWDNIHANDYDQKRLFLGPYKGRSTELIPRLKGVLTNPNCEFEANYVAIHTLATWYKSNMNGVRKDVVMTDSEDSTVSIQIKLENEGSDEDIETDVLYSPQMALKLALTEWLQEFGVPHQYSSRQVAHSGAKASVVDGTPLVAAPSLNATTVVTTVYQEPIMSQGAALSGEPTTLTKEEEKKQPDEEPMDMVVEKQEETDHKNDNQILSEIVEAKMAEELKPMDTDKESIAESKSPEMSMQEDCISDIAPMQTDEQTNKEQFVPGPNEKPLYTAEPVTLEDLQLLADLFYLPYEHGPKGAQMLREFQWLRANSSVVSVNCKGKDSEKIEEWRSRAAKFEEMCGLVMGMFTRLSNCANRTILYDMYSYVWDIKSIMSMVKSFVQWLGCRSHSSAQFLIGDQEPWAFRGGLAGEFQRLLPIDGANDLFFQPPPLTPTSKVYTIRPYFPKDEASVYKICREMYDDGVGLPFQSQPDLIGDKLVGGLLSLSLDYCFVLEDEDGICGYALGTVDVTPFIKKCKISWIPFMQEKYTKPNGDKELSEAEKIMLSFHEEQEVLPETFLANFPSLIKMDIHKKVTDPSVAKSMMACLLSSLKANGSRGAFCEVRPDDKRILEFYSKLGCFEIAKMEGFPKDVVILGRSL
Assay: OGA biochemical assay (inhibition of FM-GlcNAc hydrolysis, fluorescence)
Settings: read-out: Enzymatic Emax (%)
valueKind: Emax (%)

Previously resolved entries follow.
[[record]]
compound = "Cc1ncc(NC2CCN(C(C)c3nc4c(cc3F)OCCO4)CC2)cn1 (centres unmarked) [Compound 127]"
assayvalue = 98

[[record]]
compound = "CC(c1ccc2c(n1)OCCO2)N1CCC(Oc2ccc(F)cn2)CC1 (centres unmarked) [Compound 115]"
assayvalue = 96


1 = Cc1cc(OC2CCN(C(C)c3ccc4c(n3)OCCO4)CC2)cc(C(C)C)n1 (centres unmarked) [Compound 130]
2 = Cc1cc(OC2CCN([C@H](C)c3ccc4c(n3)OCCO4)CC2)cc(C(F)(F)F)n1 (single isomer, unassigned) [Compound 146]
Parameter check: reported Emax is higher for which label, 1 or 2 ? Output the label that corresponds to your choice. 1
(1: 100%, 2: 58%)
